- Tested on: 616215-338-R-J1-PDC spheroids with HUVEC/MSC, viability
- test summary: Anticancer human tumor 616215-338-R-J1-PDC patient-derived colon adenocarcinoma cell line growth inhibition [PI3K]
- condition summary: second compound 0.316 µM; first compound 0.1 µM; stronger effect = lower value
Each entry below carries its reported viability, T/C.
Quick reminder: number only, in %, skip the unit.

Consider the following illustrative entries.
query: For Cn1ncc(Cl)c1-c1cc(C(=O)NC(CN)Cc2cccc(F)c2)sc1Cl (stereo unspecified) + CC(Nc1ccc2c(c1)OCCn1cc(N3C(=O)OCC3C(F)F)nc1-2)C(N)=O , what is its reported viability, T/C?
result: 110

query: Name the recorded viability, T/C for C#Cc1c(F)ccc2cc(O)cc(-c3ncc4c(N5CC6CCC(C5)N6)nc(OCC56CCCN5CC(F)C6)nc4c3F)c12 (stereo unspecified) + Cc1nc(NC(=O)N2CCCC2C(N)=O)sc1-c1ccnc(C(C)(C)C(F)(F)F)c1 .
result: 99.2

query: Tell me the measured viability, T/C of C#Cc1c(F)ccc2cc(O)cc(-c3ncc4c(N5CC6CCC(C5)N6)nc(OCC56CCCN5CC(F)C6)nc4c3F)c12 (stereo unspecified) + CC(Nc1ccc2c(c1)OCCn1cc(N3C(=O)OCC3C(F)F)nc1-2)C(N)=O , please.
result: 96.5

Continuing:
query: Reported viability, T/C for CCN1CCN(Cc2ccc(Nc3ncc(F)c(-c4cc(F)c5nc(C)n(C(C)C)c5c4)n3)nc2)CC1 + Cc1nc(NC(=O)N2CCCC2C(N)=O)sc1-c1ccnc(C(C)(C)C(F)(F)F)c1 : what is it?
result: 115

query: # get_value(readout='viability, T/C', item= CC1(C)CCC(Nc2ncc(C(F)(F)F)c(-c3c[nH]c4c(P(C)(C)=O)c(C#N)ccc34)n2)CN1 (stereo unspecified) + Cc1nc(NC(=O)N2CCCC2C(N)=O)sc1-c1ccnc(C(C)(C)C(F)(F)F)c1 )
result: 57.8

query: Record request: viability, T/C value, item CC1(C)CCC(CN2CCN(c3ccc(C(=O)NS(=O)(=O)c4ccc(NCC5CCOCC5)c([N+](=O)[O-])c4)c(Oc4cnc5[nH]ccc5c4)c3)CC2)=C(c2ccc(Cl)cc2)C1 + COc1c(OCCCN2CCOCC2)ccc2c3n(c(=NC(=O)c4cnc(N)nc4)nc12)CCN3
result: 41.2

----------
The following molecules are shown together with reported viability, T/C values.
- Tested on: 616215-338-R-J1-PDC spheroids with HUVEC/MSC, viability
- test summary: Anticancer human tumor 616215-338-R-J1-PDC cell line growth inhibition [PI3K];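 further: spheroids exposed to agents for seven days before the viability read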
- condition summary: second compound 0.316 µM; first compound 0.00316 µM; stronger effect = lower value
- From the text: Combinatorial screen of targeted agents with the PI3K inhibitors inavolisib, alpelisib, duvelisib, and copanlisib in multi-cell type tumor spheroids A high-throughput screen of multi-cell type tumor spheroids was designed to identify active combinations of targeted small molecules and PI3K pathway inhibitors. […] Compounds. […] If the clinical Cmax for an agent had not been determined, the highest concentration tested was 10 microM. […]
Your answer is read as %, so omit the unit and give the number.

Answered examples (3):
query: Which viability, T/C is reported for this molecule? CC(=O)c1c(C)c2cnc(Nc3ccc(N4CCNCC4)cn3)nc2n(C2CCCC2)c1=O + CC(Nc1ccc2c(c1)OCCn1cc(N3C(=O)OCC3C(F)F)nc1-2)C(N)=O
result: 100

query: Can you look up the measured viability, T/C of CCN1CCN(Cc2ccc(Nc3ncc(F)c(-c4cc(F)c5nc(C)n(C(C)C)c5c4)n3)nc2)CC1 + CC(Nc1ccc2c(c1)OCCn1cc(N3C(=O)OCC3C(F)F)nc1-2)C(N)=O for me?
result: 102

query: # viability, T/C lookup, item Cn1ncnc1[C@H]1c2n[nH]c(=O)c3cc(F)cc(c23)N[C@@H]1c1ccc(F)cc1 + CC(Nc1ccc2c(c1)OCCn1cc(N3C(=O)OCC3C(F)F)nc1-2)C(N)=O
result: 93.5

***
query: Look at this molecule and give its reported viability, T/C. Cn1ncnc1[C@H]1c2n[nH]c(=O)c3cc(F)cc(c23)N[C@@H]1c1ccc(F)cc1 + COc1c(OCCCN2CCOCC2)ccc2c3n(c(=NC(=O)c4cnc(N)nc4)nc12)CCN3
result: 31.9

----------
- Test system: 616215-338-R-J1-PDC spheroids with HUVEC/MSC, viability
- test summary: Anticancer human tumor 616215-338-R-J1-PDC cell line growth inhibition [PI3K]; active = viability on the fitted dose curve at most 10% of control; inactive = the rest;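 further: spheroids exposed to agents for seven days before the viability read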
- condition summary: second compound 0.00316 µM; first compound 10 µM
Assign a class; possible classes are active, inactive

query: Query: recorded result category for CCCS(=O)(=O)Nc1ccc(F)c(C(=O)c2c[nH]c3ncc(-c4ccc(Cl)cc4)cc23)c1F + COc1c(OCCCN2CCOCC2)ccc2c3n(c(=NC(=O)c4cnc(N)nc4)nc12)CCN3 in this test
result: active

query: Which result was noted for this molecule in the test: C[C@@H](NC(=O)c1ncnc(N)c1Cl)c1ncc(C(=O)Nc2cc(C(F)(F)F)c(Cl)cn2)s1 + COc1c(OCCCN2CCOCC2)ccc2c3n(c(=NC(=O)c4cnc(N)nc4)nc12)CCN3
result: inactive

query: I'd appreciate the recorded outcome for C=CC(=O)N1CCN(c2nc(=O)n(-c3c(C)ccnc3C(C)C)c3nc(-c4c(O)cccc4F)c(F)cc23)C(C)C1 (stereo not given) + CC(Nc1ccc2c(c1)OCCn1cc(N3C(=O)OCC3C(F)F)nc1-2)C(N)=O from this test.
result: inactive

query: Answer briefly: the call reported for CC(C)NCC(C(=O)N1CCN(c2ncnc3c2C(C)CC3O)CC1)c1ccc(Cl)cc1 (stereo not given) + CC(Nc1ccc2c(c1)OCCn1cc(N3C(=O)OCC3C(F)F)nc1-2)C(N)=O in this assay.
result: inactive

query: // outcome(item) with item = CC1(C)CCC(CN2CCN(c3ccc(C(=O)NS(=O)(=O)c4ccc(NCC5CCOCC5)c([N+](=O)[O-])c4)c(Oc4cnc5[nH]ccc5c4)c3)CC2)=C(c2ccc(Cl)cc2)C1 + CC(Nc1ccc2c(c1)OCCn1cc(N3C(=O)OCC3C(F)F)nc1-2)C(N)=O
result: active

query: Assay result, entry Cn1ncc(Cl)c1-c1cc(C(=O)NC(CN)Cc2cccc(F)c2)sc1Cl (stereo not given) + CC(Nc1ccc2c(c1)OCCn1cc(N3C(=O)OCC3C(F)F)nc1-2)C(N)=O — outcome?
result: inactive

query: # lookup: test call for CC1(C)CCC(CN2CCN(c3ccc(C(=O)NS(=O)(=O)c4ccc(NCC5CCOCC5)c([N+](=O)[O-])c4)c(Oc4cnc5[nH]ccc5c4)c3)CC2)=C(c2ccc(Cl)cc2)C1 + COc1c(OCCCN2CCOCC2)ccc2c3n(c(=NC(=O)c4cnc(N)nc4)nc12)CCN3
result: inactive

query: Any idea what this test logged for CC(Cn1ccc(-c2ccc(C#N)c(Cl)c2)n1)NC(=O)c1cc(C(C)O)[nH]n1 (stereo not given) + COc1c(OCCCN2CCOCC2)ccc2c3n(c(=NC(=O)c4cnc(N)nc4)nc12)CCN3 ?
result: inactive

query: Which outcome was assigned to CNC(=O)c1ccc(N2C(=S)N(c3ccc(C#N)c(C(F)(F)F)c3)C(=O)C2(C)C)cc1F + COc1c(OCCCN2CCOCC2)ccc2c3n(c(=NC(=O)c4cnc(N)nc4)nc12)CCN3 in this test?
result: inactive

# next molecule below
query: Please state the recorded outcome for this molecule: CC(Cn1ccc(-c2ccc(C#N)c(Cl)c2)n1)NC(=O)c1cc(C(C)O)[nH]n1 (stereo not given) + CC(Nc1ccc2c(c1)OCCn1cc(N3C(=O)OCC3C(F)F)nc1-2)C(N)=O
result: inactive

----------
Below, each entry is listed alongside its reported IC50.
- System: 616215-338-R-J1-PDC spheroids with HUVEC/MSC, viability
- test summary: Anticancer human tumor 616215-338-R-J1-PDC cell line growth inhibition [PI3K];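 further: spheroids exposed to agents for seven days before the viability read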
- condition summary: curve of first compound; second compound 0.00316 µM
Please reply with the bare figure in µM and do not write the unit itself.

Solved entries (count: 4):
query: Request: IC50, test system 616215-338-R-J1-PDC spheroids with HUVEC/MSC, viability, entry CCCS(=O)(=O)Nc1ccc(F)c(C(=O)c2c[nH]c3ncc(-c4ccc(Cl)cc4)cc23)c1F + CC(Nc1ccc2c(c1)OCCn1cc(N3C(=O)OCC3C(F)F)nc1-2)C(N)=O
result: 4.92

query: Give IC50 (616215-338-R-J1-PDC spheroids with HUVEC/MSC, viability) of the following compound: CC(C)NCC(C(=O)N1CCN(c2ncnc3c2C(C)CC3O)CC1)c1ccc(Cl)cc1 (stereo unspecified) + CC(Nc1ccc2c(c1)OCCn1cc(N3C(=O)OCC3C(F)F)nc1-2)C(N)=O
result: 6.44

query: Provide the documented IC50 with 616215-338-R-J1-PDC spheroids with HUVEC/MSC, viability as the system for Cn1ncc(Cl)c1-c1cc(C(=O)NC(CN)Cc2cccc(F)c2)sc1Cl (stereo unspecified) + COc1c(OCCCN2CCOCC2)ccc2c3n(c(=NC(=O)c4cnc(N)nc4)nc12)CCN3
result: 2.98

query: Give recorded IC50 with 616215-338-R-J1-PDC spheroids with HUVEC/MSC, viability for the following compound: Cn1nccc1Nc1nccc(-c2ccn(C(CO)c3ccc(Cl)c(F)c3)c(=O)c2)n1 (stereo unspecified) + COc1c(OCCCN2CCOCC2)ccc2c3n(c(=NC(=O)c4cnc(N)nc4)nc12)CCN3
result: 3.28

Continuing:
query: For the record Cn1cnc2c(F)c(Nc3ccc(Br)cc3Cl)c(C(=O)NOCCO)cc21 + CC(Nc1ccc2c(c1)OCCn1cc(N3C(=O)OCC3C(F)F)nc1-2)C(N)=O , what value of IC50 is listed for 616215-338-R-J1-PDC spheroids with HUVEC/MSC, viability?
result: 1.4

Value source: PubChem BioAssay AID1963978
